system: TNF-α; assay: Inhibition of TNF-α secretion in LPS stimulated peripheral blood mononuclear cells (ELISA); type: cell-based; details: PBMC; LPS stimulated human peripheral blood mononuclear cells, 18 hours; read-out: The median inhibition concentration (IC50) of TNF-α
pIC50: −log10 of the molar value.
measure: pIC50

Cc1ccccc1C(=O)c1ccc(Nc2ccccc2NC(=O)C(F)(F)F)cc1Cl [ref. b), reference compound]    8.40

[I] Cc1ccccc1C(=O)c1ccc(Nc2ccc(F)cc2NC(=O)C(F)(F)F)cc1Cl
[II] Cc1ccccc1C(=O)c1ccc(Nc2ccc(Br)cc2NC(=O)C(F)(F)F)cc1Cl
In terms of reported pIC50, does I or II have the smaller number? Which one? Tell me its label. II
